# log10(IC50) values compiled below
- target.or.test.system: P. aeruginosa LpxC (Pseudomonas aeruginosa, UniProt P47205)
- Construct: made in house
- Sequence (P47205 whole entry): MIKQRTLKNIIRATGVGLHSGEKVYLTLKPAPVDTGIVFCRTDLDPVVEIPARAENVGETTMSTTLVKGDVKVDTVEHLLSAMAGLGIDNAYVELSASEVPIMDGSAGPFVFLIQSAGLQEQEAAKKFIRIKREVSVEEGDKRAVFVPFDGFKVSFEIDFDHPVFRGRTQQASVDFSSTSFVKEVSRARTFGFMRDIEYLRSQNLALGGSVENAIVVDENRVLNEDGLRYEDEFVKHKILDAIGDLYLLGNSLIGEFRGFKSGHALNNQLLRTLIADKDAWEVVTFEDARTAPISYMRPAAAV
- test.protocol: biochemical
- test.context: 1 nM P. aeruginosa LpxC, 30 min pre-incubation, 2 μM UDP-3-O-(R-3-hydroxydecanoyl)-GlcNAc, pH 7.5, room temperature; read-out: IC50 (LpxC inhibitory activity)
measure: log10(IC50) (log10 of the value in nM)

> print(dat)
                                   molecule      measure  endpoint.result
1  CC(C)(C)C#C/C=C/COc1ccc(C(=O)N[C@H](C(=O)NO)C(C)(C)N)cc1  log10(IC50)            -1.30
2  CC(C)C#CCOc1ccc(C(=O)N[C@H](C(=O)NO)C(C)(C)N)cc1  log10(IC50)             0.74
3  CCCCC#C/C=C/COc1ccc(C(=O)N[C@H](C(=O)NO)C(C)(C)N)cc1  log10(IC50)            -0.70
4  CCCC#CCOc1ccc(C(=O)N[C@H](C(=O)NO)[C@@H](C)N)cc1  log10(IC50)             0.18
5  CC(C)(N)[C@H](NC(=O)c1ccc(OCC#Cc2ccccc2)cc1)C(=O)NO  log10(IC50)             0.00
6  C[C@@H](N)[C@H](NC(=O)c1ccc(OCC#Cc2ccoc2)cc1)C(=O)NO  log10(IC50)             0.48
7  CC#CC(C)Oc1ccc(C(=O)N[C@H](C(=O)NO)[C@@H](C)N)cc1 (stereo partly drawn) [Example 31]  log10(IC50)             2.15
8  CCCCOc1ccc(C(=O)N[C@H](C(=O)NO)C(C)(C)N)cc1  log10(IC50)             0.60
9  C#CC(C)(C)Oc1ccc(C(=O)NC(C(=O)NO)C(C)(C)N)cc1 (stereo not drawn)  log10(IC50)             0.15

====

- target.or.test.system: P. aeruginosa LpxC (Pseudomonas aeruginosa, UniProt P47205)
- Construct: made in house
- test.protocol: biochemical
- test.context: 1 nM P. aeruginosa LpxC, 30 min pre-incubation, 2 μM UDP-3-O-(R-3-hydroxydecanoyl)-GlcNAc, pH 7.5, room temperature; read-out: IC50 (LpxC inhibitory activity)
pIC50: −log10 of the molar value.
measure: pIC50

> print(dat)
                                   compound                     target.or.test.system  measure  endpoint.result
1  CC(C)=CC#CCOc1ccc(C(=O)N[C@H](C(=O)NO)[C@@H](C)N)cc1  P. aeruginosa LpxC (Pseudomonas aeruginosa, UniProt P47205)    pIC50             8.10
2   CC#CCOc1ccc(C(=O)N[C@@H](CN)C(=O)NO)cc1  P. aeruginosa LpxC (Pseudomonas aeruginosa, UniProt P47205)    pIC50             6.89
3  CC(C)(N)[C@H](NC(=O)c1ccc(OCC#CC2=CCOCC2)cc1)C(=O)NO  P. aeruginosa LpxC (Pseudomonas aeruginosa, UniProt P47205)    pIC50             8.70
4  COc1ccc(C#CCOc2ccc(C(=O)N[C@H](C(=O)NO)C(C)(C)N)cc2)cc1  P. aeruginosa LpxC (Pseudomonas aeruginosa, UniProt P47205)    pIC50             6.38
5  CC#CC(C)Oc1ccc(C(=O)N[C@H](C(=O)NO)[C@@H](C)N)cc1 (some centres unmarked) [Example 32]  P. aeruginosa LpxC (Pseudomonas aeruginosa, UniProt P47205)    pIC50             6.64
6  CC#CCOc1ccc(C(=O)NC(C(=O)NO)C(C)(C)N)cc1OC (centres unmarked)  P. aeruginosa LpxC (Pseudomonas aeruginosa, UniProt P47205)    pIC50             6.82
7  CC(C)(N)[C@H](NC(=O)c1ccc(OCC#CC2=CCNCC2)cc1)C(=O)NO  P. aeruginosa LpxC (Pseudomonas aeruginosa, UniProt P47205)    pIC50             7.85
8  CC(C)(N)[C@H](NC(=O)c1ccc(OCC#Cc2cccc(CO)c2)cc1)C(=O)NO  P. aeruginosa LpxC (Pseudomonas aeruginosa, UniProt P47205)    pIC50             9.70

====

# pIC50 values compiled below
- target.or.test.system: P. aeruginosa LpxC (Pseudomonas aeruginosa, UniProt P47205)
- Construct: made in house
- test.protocol: biochemical
- test.context: 1 nM P. aeruginosa LpxC, 30 min pre-incubation, 2 μM UDP-3-O-(R-3-hydroxydecanoyl)-GlcNAc, pH 7.5, room temperature; read-out: IC50 (LpxC inhibitory activity)
- Experimental: The LC-MS/MS method for quantitation of LpxC product was developed using an Agilent 1200 Capillary HPLC system coupled to an Applied Biosystems MDS Sciex 4000QTRAP mass spectrometer. Both instruments are controlled using the Applied Biosystems MDS Sciex Analyst software. […] After quenching with 1.8% HOAc (10 μL of a 20% HOAc added to each well), reaction mixtures are analyzed using the LC-MS/MS method and peak areas are transformed into product concentration using a LpxC product calibration curve. […]
pIC50: −log10 of the molar value.
measure: pIC50

> print(dat)
                                   compound  measure  endpoint.result
1  C=C(C)C#CCOc1ccc(C(=O)N[C@H](C(=O)NO)C(C)(C)N)cc1    pIC50             9.00
2  COCC#C/C=C/COc1ccc(C(=O)N[C@H](C(=O)NO)C(C)(C)N)cc1    pIC50             9.00
3  CC(C)(N)[C@H](NC(=O)c1ccc(OCC2CC2)cc1)C(=O)NO    pIC50             7.74
4  CC#CCOC1CCC(C(=O)N[C@H](C(=O)NO)[C@@H](C)N)CC1 (single isomer, unassigned)    pIC50             6.42
5  CC(C)(N)[C@H](NC(=O)c1ccc(OCC#CC2=CCC(O)CC2)cc1)C(=O)NO (stereo partly drawn)    pIC50            10.52
6  CC#CCOc1ccc(C(=O)N[C@@H](CCCN)C(=O)NO)cc1    pIC50             5.57

====

# pIC50 values compiled below
- target.or.test.system: P. aeruginosa LpxC (Pseudomonas aeruginosa, UniProt P47205)
- Construct: made in house
- test.protocol: biochemical
- test.context: 1 nM P. aeruginosa LpxC, 30 min pre-incubation, 2 μM UDP-3-O-(R-3-hydroxydecanoyl)-GlcNAc, pH 7.5, room temperature; read-out: IC50 (LpxC inhibitory activity)
pIC50: −log10 of the molar value.
measure: pIC50

> print(dat)
                                   compound  endpoint.result
1  CC(C)=CCC/C(C)=C/COc1ccc(C(=O)N[C@H](C(=O)NO)[C@@H](C)N)cc1             7.99
2  CC(C)(N)[C@H](NC(=O)c1ccc(OCC#CC2CC2)cc1)C(=O)NO             9.40
3  CC#CCOc1ccc(C(=O)N[C@H](C(=O)NO)C(C)(C)N)cc1F             8.59
4  C#C/C=C/COc1ccc(C(=O)N[C@H](C(=O)NO)[C@@H](C)N)cc1             8.26
5  CC#CCOc1c(F)cc(C(=O)NC(C(=O)NO)C(C)(C)N)cc1F (centres unmarked)             8.39

====

- target.or.test.system: P. aeruginosa LpxC (Pseudomonas aeruginosa, UniProt P47205)
- Construct: made in house
- test.protocol: biochemical
- test.context: 1 nM P. aeruginosa LpxC, 30 min pre-incubation, 2 μM UDP-3-O-(R-3-hydroxydecanoyl)-GlcNAc, pH 7.5, room temperature; read-out: IC50 (LpxC inhibitory activity)
pIC50: −log10 of the molar value.
Decide using pIC50: a value greater than or equal to 8 is true, a smaller one is false.

> print(dat)
                                   compound  label.class
1  CC(C)(O)C#CCOc1ccc(C(=O)NC(C(=O)NO)C(C)(C)N)cc1 (stereo not drawn)        false
2  CC(C)=CCOc1ccc(C(=O)NC(C(=O)NO)C(C)(C)N)cc1 (stereo not drawn)         true
3  CC(C)(N)[C@H](NC(=O)c1ccc(OCC#Cc2ccccn2)cc1)C(=O)NO         true
4  CC#CCOc1ccc(-c2ccc(C(=O)N[C@H](C(=O)NO)C(C)(C)N)cc2)cc1         true
5  CC(C)(N)[C@H](NC(=O)c1ccc(OCC#CC2=CCCC2)cc1)C(=O)NO         true
6  CC#CCOc1ccc(C(=O)N[C@H](C(=O)NO)[C@@H](C)N)c(F)c1        false
7  CC#CCSc1ccc(C(=O)NC(C(=O)NO)C(C)(C)N)cc1 (stereo not drawn)         true
